assay: Pharmacokinetic studies in rats; details: male, Crl:CD (SD), rat, in vivo, iv, 5 mg/kg
Starred links: 1 amine or outer side, 2 acyl side, 3 side chain; linkers in the order of their positions; H or OH if unused. Non-standard residues stand in square brackets, D forms with d. Residues, ends and D or L forms follow the SMILES beside them. ξ: configuration not given here. Oic = O=C(O)[C@@H]1C[C@@H]2CCCC[C@@H]2N1; GABOB(3R) = O=C(C[C@@H](O)CN[*:1])[*:2]; tBuAla = CC(C)(C)C[C@H](N)C(=O)O; ξVal(3-OH) = CC(C)(O)C(N)C(=O)O; 4Amb = NCc1ccc(C(=O)O)cc1
measure: C0 (ng/mL)
Give bare numbers, in ng/mL.

IN: Bench note: what C0 did CC(C)(C)C[C@@H]1NC(=O)C[C@@H](O)CNC(=O)[C@@H]2C[C@@H]3CCCC[C@@H]3N2C(=O)[C@H](CC(C)(C)C)NC(=O)c2ccc(cc2)CNC(=O)C(C(C)(C)O)NC(=O)[C@@H](Cc2ccccc2)NC1=O (stereo partly drawn) [compound 109] (cyclo([4Amb][tBuAla][Oic][GABOB(3R)][tBuAla][dF][ξVal(3-OH)])) show?
OUT: 46300

====

test: in vitro; conditions: rat, plasma
Starred links: 1 amine or outer side, 2 acyl side, 3 side chain; linkers in the order of their positions; H or OH if unused. Non-standard residues stand in square brackets, D forms with d. Residues, ends and D or L forms follow the SMILES beside them. ξ: configuration not given here. Oic = O=C(O)[C@@H]1C[C@@H]2CCCC[C@@H]2N1; GABOB(3R) = O=C(C[C@@H](O)CN[*:1])[*:2]; tBuAla = CC(C)(C)C[C@H](N)C(=O)O; ξVal(3-OH) = CC(C)(O)C(N)C(=O)O; 4Amb = NCc1ccc(C(=O)O)cc1
measure: half-life at 5 μM (h)
Numbers only, in h.

IN: half-life at 5 μM for CC(C)(C)C[C@@H]1NC(=O)C[C@@H](O)CNC(=O)[C@@H]2C[C@@H]3CCCC[C@@H]3N2C(=O)[C@H](CC(C)(C)C)NC(=O)c2ccc(cc2)CNC(=O)C(C(C)(C)O)NC(=O)[C@@H](Cc2ccccc2)NC1=O (stereo partly drawn) [compound 109] (cyclo([4Amb][tBuAla][Oic][GABOB(3R)][tBuAla][dF][ξVal(3-OH)])) ?
OUT: 4.88

====

test: in vitro; settings: mouse, plasma
Starred links: 1 amine or outer side, 2 acyl side, 3 side chain; linkers in the order of their positions; H or OH if unused. Non-standard residues stand in square brackets, D forms with d. Residues, ends and D or L forms follow the SMILES beside them. ξ: configuration not given here. Oic = O=C(O)[C@@H]1C[C@@H]2CCCC[C@@H]2N1; GABOB(3R) = O=C(C[C@@H](O)CN[*:1])[*:2]; tBuAla = CC(C)(C)C[C@H](N)C(=O)O; ξVal(3-OH) = CC(C)(O)C(N)C(=O)O; 4Amb = NCc1ccc(C(=O)O)cc1
measure: remaining at 2 h, 5 μM (%)
One number for each entry, in %.

IN: I have this compound here, CC(C)(C)C[C@@H]1NC(=O)C[C@@H](O)CNC(=O)[C@@H]2C[C@@H]3CCCC[C@@H]3N2C(=O)[C@H](CC(C)(C)C)NC(=O)c2ccc(cc2)CNC(=O)C(C(C)(C)O)NC(=O)[C@@H](Cc2ccccc2)NC1=O (stereo partly drawn) [compound 109] (cyclo([4Amb][tBuAla][Oic][GABOB(3R)][tBuAla][dF][ξVal(3-OH)])) , and I need its recorded remaining at 2 h, 5 μM.
OUT: 89.8
